# ASSAY_EXPLANATION: NCI Yeast Anticancer Drug Screen. Data for the cln2 rad14 strain (AID 165);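 note: 0% = growth equal to vehicle treated cultures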
# TEST_CONTEXT: S. cerevisiae cln2 rad14 strain, at 50.0 µM, active compounds read high
The panel holds about 79,000 compounds, 15% with a hit somewhere; the sample as a whole holds those more often.

COMPOUND: COc1cc2c(cc1OC)C1=NN(c3ccccc3)C(=O)C1CC2 (stereo unspecified)
growth inhibition, %: -7.2
--
COMPOUND: CCCCCCCCCCCC(=O)OCC1OC(n2cc(F)c(=O)[nH]c2=O)C(N)C(OC(=O)CCCCCCCCCCC)C1O (stereo unspecified)
growth inhibition, %: 4.2
--
COMPOUND: Cc1cc(=O)c2c([nH]1)c1c(c3[nH]c(C)cc(=O)c32)Oc2ccccc2O1
growth inhibition, %: -10.6
--
COMPOUND: Cn1c2c(c3ccccc31)CCN(CCCCN1CCc3c(n(C)c4ccccc34)C1=O)C2
growth inhibition, %: 5.25
--
COMPOUND: Clc1ccc(C2=NCCO2)cc1
growth inhibition, %: -11.8
--
COMPOUND: Cc1ccc2[nH]c(=O)cc(C(F)(F)F)c2c1
growth inhibition, %: -2.1
--
COMPOUND: CCC(=O)NN1C(=O)c2ccccc2C1=O
growth inhibition, %: -13.2
--
COMPOUND: COC(=O)c1c2c(cc3c1CC1(C3)Cc3cc4c(c(C(C)=O)c3C1)CCC4)C=CC2 (stereo unspecified)
growth inhibition, %: 1.35
--
COMPOUND: CN(C)Cc1c(-c2ccccc2)c(-c2ccccc2)c2ccccn12
growth inhibition, %: 2.8
--
COMPOUND: Nc1cccc(Nc2nc3ccccc3nc2NS(=O)(=O)c2ccccc2)c1
growth inhibition, %: -11.3
--
COMPOUND: OCC1CC2c3ccccc3C1c1ccccc12 (stereo unspecified)
growth inhibition, %: -0.05

All values here come from PubChem BioAssay (NCI).
